- TGT: FRMPD2_3, Q68DX3
- Sequence (Q68DX3 1073-1166): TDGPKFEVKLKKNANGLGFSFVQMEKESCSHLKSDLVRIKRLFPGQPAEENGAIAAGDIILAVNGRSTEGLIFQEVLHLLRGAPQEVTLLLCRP
- ASSAY: holdup assay
- Design: key: below the threshold = too weak to quantify, mostly under pKd 3.1 to 4
- STUDY CONDITIONS: plain residues with an end cap or a label only (N-terminal biotin on a linker: ado-ado)
PARAMETER: pKd

{"columns": ["BINDER", "pKd"],
 "data": [
  ["SRSVVESDEL [MYPN, Q86TC9]", "below the threshold"],
  ["AEASVACSLC [PTGIR, P43119]", "below the threshold"],
  ["TISFTQTSQF [SLC1A1, P43005]", "below the threshold"],
  ["DGVNEKVSCV [HTR2A, P28223]", 3.53],
  ["TNSRHGETTV [FZD2, Q14332]", 3.62],
  ["SPDRDRESIV [SCN5A, Q14524]", 3.48],
  ["AAVENKVTDL [PLXNB1, O43157]", "below the threshold"],
  ["EKCGKEFSEF [PRKACA, P17612]", "below the threshold"],
  ["EDPRVEVTQF [SLC22A9, Q8IVM8]", "below the threshold"],
  ["ELSATVTTDC [TRIP6, Q15654]", "below the threshold"]
]}

Reported pKd, binder TGLWKHETTV [ADGRA3, Q8IWK6] : ____
below the threshold

Reported pKd, binder ILRKSTTTTV [PRR16, Q569H4] : ____
below the threshold

Reported pKd, binder KKMLQRRTLL [OR8G1, Q15617] : ____
below the threshold

Reported pKd, binder PYSESDDDWC [CACNA1A, O00555] : ____
below the threshold

Reported pKd, binder KPGKGSETVV [FZD4, Q9ULV1] : ____
below the threshold

Reported pKd, binder NIAESLESLV [PTPRZ1, P23471] : ____
below the threshold
